- Test system: OVCAR-8 ovarian
- method: NCI tumour cell line growth inhibition, 48 h
Listed molecules paired with reported TGI

| molecule | TGI |
| --- | --- |
| COc1cc2c(cc1OCCCCCOc1ccc(-c3nc4ccccc4s3)cc1)N=C[C@@H]1CCCN1C2=O | 21.1 µM |
| O=[N+]([O-])C1=Cc2c(O)ccc(O)c2C2OC=CC12 (configuration not stated) | > 56.2 µM |
| Cc1cc(NC(=O)NCCCOc2ccc(N3C(N)=NC(N)=NC3(C)C)cc2Cl)ccc1S(=O)(=O)F | > 100 µM |

Find the recorded TGI belonging to "O=C1c2ccccc2C(=O)N1C/C=N/NS(=O)(=O)c1cccc([N+](=O)[O-])c1" and report it.
> 100 µM

Next record, please: "CN1CCN(CCCOC(=O)c2c3c(n4ccccc24)C(=O)c2ncccc2C3=O)CC1"
11.9 µM
